- ASSAY_NAME: tissue distribution after single and repeated administration
- Type: in vivo, mice
- PROTOCOL_CONDITIONS: male, C57BL/6, mouse, lung, iv, 20 mg/kg, 24 h after repeated (5 days, once a day) 20 mg/kg BW i.v.; mean ± SEM; read-out: Concentration, Lung
- Method: Via heparin-coated catheters a maximum of 50 µL blood was collected from the tail vein at 0.25, 0.5, 1, 2, 3, 4, 6, 8, or 24 h after administration and immediately centrifuged at 4000× g at 4 °C for 10 min. For repeated administration 20 mg/kg BW SH045 were administered at 8:00 a.m. on five consecutive days, once a day. Blood was taken 1 h and 24 h after drug administration. Tissue samples were harvested from isoflurane-euthanized animals at indicated time points. […]
MEASUREMENT_NAME: concentration at 24 h (ng/g)
Give bare numbers, in ng/g.

In: Return concentration at 24 h (reported value) for this compound: C=C[C@@](C)(O)CC[C@H]1C(=C)C[C@H](OC(=O)NC)[C@H]2C(C)(C)CCC[C@]12C [SH045]
Out: 2390
